# Test system: SW480
# Assay Summary: Anti-cancer assay, MTT, LD50
# Format: cell-based
# Condition Notes: SW480 colon adenocarcinoma line, 24 hours with peptide
Record form. Attribute: LD50 SW480. Fill in for each entry.
Form entry: value (µg/mL) — number only.

LD50 SW480 reading for CC(C)C[C@H](NC(=O)[C@H](C)NC(=O)[C@H](CC(C)C)NC(=O)[C@H](CCCCN)NC(=O)[C@H](C)NC(=O)[C@H](CC(C)C)NC(=O)[C@H](CCCCN)NC(=O)[C@H](CCCCN)NC(=O)[C@H](C)NC(=O)[C@H](CC(C)C)NC(=O)[C@H](CCCCN)NC(=O)[C@H](C)NC(=O)[C@H](CC(C)C)NC(=O)[C@H](CCCCN)NC(=O)[C@H](CCCCN)NC(=O)[C@H](C)NC(=O)[C@@H](N)Cc1ccccc1)C(=O)O : 100

LD50 SW480 reading for CC(C)C[C@H](NC(=O)[C@H](C)NC(=O)[C@H](CC(C)C)NC(=O)[C@H](C)NC(=O)[C@H](CC(C)C)NC(=O)[C@H](CCCCN)NC(=O)[C@H](C)NC(=O)[C@H](CC(C)C)NC(=O)[C@H](CCCCN)NC(=O)[C@H](CCCCN)NC(=O)[C@H](C)NC(=O)[C@H](CC(C)C)NC(=O)[C@H](CCCCN)NC(=O)[C@H](C)NC(=O)[C@H](CC(C)C)NC(=O)[C@H](CCCCN)NC(=O)[C@H](CCCCN)NC(=O)[C@H](C)NC(=O)[C@@H](N)Cc1ccccc1)C(N)=O : 30

LD50 SW480 reading for CC[C@H](C)[C@H](N)C(=O)N[C@@H](CC(C)C)C(=O)N1CCC[C@H]1C(=O)N[C@@H](Cc1c[nH]c2ccccc12)C(=O)N[C@@H](CCCCN)C(=O)N[C@@H](Cc1c[nH]c2ccccc12)C(=O)N1CCC[C@H]1C(=O)N[C@@H](Cc1c[nH]c2ccccc12)C(=O)N[C@@H](Cc1c[nH]c2ccccc12)C(=O)N1CCC[C@H]1C(=O)N[C@@H](Cc1c[nH]c2ccccc12)C(=O)N[C@@H](CCCNC(=N)N)C(=O)N[C@@H](CCCNC(=N)N)C(N)=O [P63, reference compound] : 345

LD50 SW480 reading for CC(C)C[C@H](NC(=O)[C@H](C)NC(=O)[C@H](CC(C)C)NC(=O)[C@H](CCCCN)NC(=O)[C@H](C)NC(=O)[C@H](CC(C)C)NC(=O)[C@H](CCCCN)NC(=O)[C@H](CCCCN)NC(=O)[C@H](C)NC(=O)[C@H](CC(C)C)NC(=O)[C@H](CCCCN)NC(=O)[C@H](C)NC(=O)[C@H](CC(C)C)NC(=O)[C@H](CCCCN)NC(=O)[C@H](CCCCN)NC(=O)[C@H](C)NC(=O)[C@@H](N)Cc1ccccc1)C(N)=O : 14

###

# System: WI38
# Condition Notes: MTT, 24 hours with peptide; normal fibroblast line
No end group written: not given here.
Metric Name: WI38 LD50 (µg/mL)
Form entry: value (µg/mL) — number only.

WI38 LD50 reading for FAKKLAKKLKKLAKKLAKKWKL-OH [P72] : 125

WI38 LD50 reading for VAKLLAKLAKKLL-NH2 [P48] : 41

WI38 LD50 reading for FAKKLAKLAKKLLAL-NH2 [P38, FAKKLAKLAKKLLAL-NH2] : 12

WI38 LD50 reading for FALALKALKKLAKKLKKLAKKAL-NH2 [P25] : 24

WI38 LD50 reading for KKVVFKVKFK-NH2 [P302, reference compound] : 800

WI38 LD50 reading for FALALKLAKKL-NH2 [P178] : 405

WI38 LD50 reading for KWKLFKKALKKLKKALKKAL-NH2 [P104] : 24

WI38 LD50 reading for FAKLLAKLAKKLL-NH2 [P43] : 5

WI38 LD50 reading for FALALKLAKKAL-NH2 [P167, FALALKLAKKAL-NH2] : 260

WI38 LD50 reading for FAKIIAKIAKIAKKIL-NH2 [P139] : 550

WI38 LD50 reading for FKVKFKVKVK-NH2 [P303, reference compound] : 355

WI38 LD50 reading for FAKKLAKKLKKLAKKLAKLAKKL-NH2 [P307, reference compound] : 75

WI38 LD50 reading for FAKKLAKLALKLAKL-NH2 [P44] : 36

WI38 LD50 reading for FKLAFKLAKKAFL-NH2 [P122] : 720

WI38 LD50 reading for FAKALAKLAKKLL-NH2 [P92] : 43

WI38 LD50 reading for VALALKALKKL-NH2 [P180] : 940

WI38 LD50 reading for FAKLLAKALKKL-NH2 [P103] : 26

WI38 LD50 reading for FAKLLKLAAKKLL-NH2 [P56] : 250

WI38 LD50 reading for FAKLWAKLAFGKGIGKVGKKLL-NH2 [P135] : 110

WI38 LD50 reading for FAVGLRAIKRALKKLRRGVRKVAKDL-NH2 [P157, reference compound] : 500

WI38 LD50 reading for FALALKA-NH2 [P141, FALALKA-NH2] : 420

WI38 LD50 reading for FAKLLAKLAKKVL-NH2 [P124] : 21

###

# System: S. epidermidis C621
# Type: cell-based, Staphylococcus epidermidis
# Condition Notes: Table 15
No end group written: not given here.
Record form. Attribute: MIC S. epidermidis C621. Fill in for each entry.
Form entry: value (µg/mL) — number only.

MIC S. epidermidis C621 reading for FKRLAKIKVLRLAKIKR-NH2 [P147 (109)] : 64

MIC S. epidermidis C621 reading for FALALKALKK-NH2 [P169 (130)] : 32

MIC S. epidermidis C621 reading for FAKLLAKLAKKSL-NH2 [P127 (89)] : 64

MIC S. epidermidis C621 reading for FALLKL-NH2 [P168 (129)] : 128

MIC S. epidermidis C621 reading for FAKLLAKLAK-NH2 [P123 (85)] : 16

MIC S. epidermidis C621 reading for FAKLLAKLAKKGL-NH2 [P152 (114)] : 32

MIC S. epidermidis C621 reading for FAKLLFKALKKAL-NH2 [P112 (76)] : 64

MIC S. epidermidis C621 reading for FAKLAKKALAKLL-NH2 [P148 (110)] : 128

MIC S. epidermidis C621 reading for FAKLWAKLAKKL-NH2 [P136 (98)] : 128

MIC S. epidermidis C621 reading for FALLKALKKAL-NH2 [P171 (132)] : 128

MIC S. epidermidis C621 reading for FAKIIAKIAKIAKKIL-NH2 [P139 (101)] : 64

###

# Assay Summary: in vitro
# Format: cell-based, human
# Condition Notes: human, human red blood cells, pH 7, hemolytic assay, concentration at 50% hemolysis, 1 hour at 37° C.; read-out: LD50
No end group written: not given here.
Metric Name: HC50 at 1 h (µg/mL)
Form entry: value (µg/mL) — number only.

HC50 at 1 h reading for FALALKKALKALKKAL-NH2 [P34] : 200

HC50 at 1 h reading for FAKKLAKLALKLAKL-NH2 [P44] : 90

HC50 at 1 h reading for FALALKALKKLKKALKKAL-NH2 [P27] : 125

HC50 at 1 h reading for FAKLLAKLAKAKL-NH2 [P65] : 950

HC50 at 1 h reading for FALALKALKKLKKALKKAL-OH [P28] : 700

HC50 at 1 h reading for FALALKALKKL-NH2 [P165] : 350

HC50 at 1 h reading for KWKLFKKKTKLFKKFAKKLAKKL-NH2 [P73] : 90

HC50 at 1 h reading for KWKLFKKALKKLKKALKKAL-NH2 [P104] : 70

HC50 at 1 h reading for VAKFLAKFLKKAL-NH2 [P502, VAKFLAKFLKKAL-NH2] : 100

HC50 at 1 h reading for FALLKALLKKAL-NH2 [P177, FALLKALLKKAL-NH2] : 400

HC50 at 1 h reading for VAKLLAKALKKLL-NH2 [P506] : 120

HC50 at 1 h reading for FAKLLKLAAKKLL-NH2 [P56] : 600

HC50 at 1 h reading for KTKLFKKFAKKLAKKLKKLAKKL-OH [P80] : 900

HC50 at 1 h reading for FAKALAKLAKKLL-NH2 [P92] : 300

HC50 at 1 h reading for FAKLLAKALKKLL-NH2 [P55] : 20

HC50 at 1 h reading for FAFGKGIGKIGKKGL-NH2 [P138] : 20

HC50 at 1 h reading for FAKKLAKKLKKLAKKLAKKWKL-OH [P72] : 110

HC50 at 1 h reading for FAKLLAKALKKL-NH2 [P103] : 650

HC50 at 1 h reading for FAKLLAKLAKKAL-NH2 [P54, FAKLLAKLAKKAL-NH2] : 250

HC50 at 1 h reading for FAKKLKKLAKLAKKL-NH2 [P46] : 900

HC50 at 1 h reading for FKVKFKVKVK-NH2 [P303, reference compound] : 500

HC50 at 1 h reading for KWKLFKKIGAVLKVL-NH2 [P53, reference compound] : 20

HC50 at 1 h reading for FALALKALKKAL-NH2 [P144, FALALKALKKAL-NH2] : 600

HC50 at 1 h reading for GIGKFLHSAKKFGKAFVGGIMNS-NH2 [P16, reference compound] : 550

HC50 at 1 h reading for FAKKLAKKLKKLAKKLIGAVLKV-OH [P99] : 25

HC50 at 1 h reading for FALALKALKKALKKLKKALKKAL-OH [P1, reference compound] : 100

HC50 at 1 h reading for FAKLLAKLAK-NH2 [P123] : 1000

HC50 at 1 h reading for LKKLAKLALAF-NH2 [P179] : 850

HC50 at 1 h reading for FAKLLAKLAKLKL-NH2 [P66] : 600

HC50 at 1 h reading for FAKLLAKALKLKL-NH2 [P101] : 550

HC50 at 1 h reading for VAKALKALLKALKAL-NH2 [P501, VAKALKALLKALKAL-NH2] : 15

HC50 at 1 h reading for FALLKALKKAL-NH2 [P171, FALLKALKKAL-NH2] : 550

HC50 at 1 h reading for FAKKLAKKLKKLAKLALAL-OH [P29] : 250

HC50 at 1 h reading for VAKLLAKLAKKVL-NH2 [P154] : 450

HC50 at 1 h reading for FAKKLAKLAKKLLAL-NH2 [P38, FAKKLAKLAKKLLAL-NH2] : 350

HC50 at 1 h reading for FKRLAKIKVLRLAKIKR-NH2 [P147] : 300

HC50 at 1 h reading for VALALKALKKLLKKLKKLAKKAL-NH2 [P510] : 10
